- Tested on: Tau-BiFC cells
- Test Details: Cell viability (cytotoxicity) in tau-BiFC cells, count of stained nuclei
- Assay type: cell-based
- Details: compound 10 μM; Forskolin-only group = 100% cell viability
As shown below, each of these molecules has a reported Cell viability (% @10 μM) value.

>  <Compound Structure>
Cc1ccc(NS(=O)(=O)c2ccc(NN=C(C#N)C#N)cc2)cn1

>  <Cell viability (% @10 μM) [%]>
111.4

$$$$
>  <Compound Structure>
COc1cc(C(=O)Nc2ccc(C)nc2)ccc1NN=C(C#N)C#N

>  <Cell viability (% @10 μM) [%]>
108.6

$$$$
>  <Compound Structure>
N#CC(C#N)=NNc1ccc(OCCc2ccc(C(F)(F)F)cc2)nc1

>  <Cell viability (% @10 μM) [%]>
37.9

$$$$
>  <Compound Structure>
N#CC(C#N)=NNc1ccc(NC(=O)c2cocn2)nc1

>  <Cell viability (% @10 μM) [%]>
147

$$$$
>  <Compound Structure>
COc1cc(NN=C(C#N)C#N)ccc1C(=O)Nc1ccc(C)cc1

>  <Cell viability (% @10 μM) [%]>
121.8

$$$$
>  <Compound Structure>
Cc1ccc(C(=O)Nc2ccc(NN=C(C#N)C#N)cn2)cc1F

>  <Cell viability (% @10 μM) [%]>
105.8

$$$$
>  <Compound Structure>
N#CC(C#N)=NNc1ccc(OCc2cccnn2)cc1

>  <Cell viability (% @10 μM) [%]>
134.9

$$$$
>  <Compound Structure>
N#CC(C#N)=NNc1ccc(C(=O)Nc2ncccn2)nc1

>  <Cell viability (% @10 μM) [%]>
168.6

$$$$
>  <Compound Structure>
N#CC(C#N)=NNc1ccc(OCc2ccc(C(F)(F)F)cc2)nc1

>  <Cell viability (% @10 μM) [%]>
27.5

$$$$
